Origin of the recorded values: patent US9475773B2

assay: Pharmacokinetics and metabolism in dogs; type: in vivo; details: dog, plasma, oral; dogs dosed at 1000 mg/kg/day (2180 μmol/kg/day); read-out: T1/2 at the end of dosing
endpoint_label: half-life

half-life reading for CC[C@H](NC(=O)c1c(NS(C)(=O)=O)c(-c2ccccc2)nc2ccccc12)c1ccccc1 : 5.6 to 14.3 h

---

assay: Pharmacokinetics and metabolism in rats; assay type: in vivo, rat; details: rat
endpoint_label: volume of distribution (Vz) (L/kg)
Record the value in L/kg, omitting the unit from your answer.

volume of distribution (Vz) reading for CC[C@H](NC(=O)c1c(NS(C)(=O)=O)c(-c2ccccc2)nc2ccccc12)c1ccccc1 : 1.6

---

test: Pharmacokinetics and metabolism in rats; format: in vivo, rat; settings: plasma; rat, low doses, estimated; read-out: Clp
endpoint_label: clearance (L/h/kg)
Record the value in L/h/kg, omitting the unit from your answer.

clearance reading for CC[C@H](NC(=O)c1c(NS(C)(=O)=O)c(-c2ccccc2)nc2ccccc12)c1ccccc1 [NK3RA] : 0.498

---

biological target: hERG channel (Homo sapiens, UniProt Q12809); test: hERG channel in vitro (tail current); format: cell-based; conditions: human; 97 μM
Sequence (Q12809 whole entry): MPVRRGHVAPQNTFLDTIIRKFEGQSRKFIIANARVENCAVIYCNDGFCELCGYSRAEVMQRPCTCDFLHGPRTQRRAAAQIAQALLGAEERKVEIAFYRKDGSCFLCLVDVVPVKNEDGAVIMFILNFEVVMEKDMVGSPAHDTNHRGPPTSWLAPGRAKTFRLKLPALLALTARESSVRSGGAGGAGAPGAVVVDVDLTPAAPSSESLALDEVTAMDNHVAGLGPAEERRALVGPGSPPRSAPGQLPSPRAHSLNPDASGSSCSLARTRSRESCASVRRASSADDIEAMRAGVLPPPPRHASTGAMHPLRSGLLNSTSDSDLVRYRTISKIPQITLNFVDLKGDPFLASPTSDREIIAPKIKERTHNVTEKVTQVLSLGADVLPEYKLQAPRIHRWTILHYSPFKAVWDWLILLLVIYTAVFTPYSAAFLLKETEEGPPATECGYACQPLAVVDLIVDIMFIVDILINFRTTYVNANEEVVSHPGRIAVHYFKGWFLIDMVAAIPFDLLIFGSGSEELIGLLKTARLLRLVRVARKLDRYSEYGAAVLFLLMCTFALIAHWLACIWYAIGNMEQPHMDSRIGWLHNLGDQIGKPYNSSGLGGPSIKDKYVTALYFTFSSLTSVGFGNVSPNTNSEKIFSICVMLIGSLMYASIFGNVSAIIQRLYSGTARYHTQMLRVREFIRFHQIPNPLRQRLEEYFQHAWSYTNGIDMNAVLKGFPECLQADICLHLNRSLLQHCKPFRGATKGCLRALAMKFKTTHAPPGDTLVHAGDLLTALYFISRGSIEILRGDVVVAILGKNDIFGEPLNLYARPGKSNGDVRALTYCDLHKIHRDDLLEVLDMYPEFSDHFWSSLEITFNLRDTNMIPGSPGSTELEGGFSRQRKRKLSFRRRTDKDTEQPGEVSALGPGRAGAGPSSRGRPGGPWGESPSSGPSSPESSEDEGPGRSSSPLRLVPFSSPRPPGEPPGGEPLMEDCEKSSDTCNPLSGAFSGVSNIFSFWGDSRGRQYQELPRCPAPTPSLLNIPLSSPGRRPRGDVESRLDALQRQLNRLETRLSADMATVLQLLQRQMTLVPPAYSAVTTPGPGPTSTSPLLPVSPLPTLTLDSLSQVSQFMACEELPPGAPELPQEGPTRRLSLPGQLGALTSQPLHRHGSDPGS
endpoint_label: inhibition at 97 µM (%)
Record the value in %, omitting the unit from your answer.

inhibition at 97 µM reading for CC[C@H](NC(=O)c1c(NS(C)(=O)=O)c(-c2ccccc2)nc2ccccc12)c1ccccc1 [NK3RA] : 25

---

test: Pharmacokinetics and metabolism in rats; assay type: in vivo, rat; conditions: rat, plasma; read-out: elimination half-life (T½) (converted)
endpoint_label: half-life (h)
Record the value in h, omitting the unit from your answer.

half-life reading for CC[C@H](NC(=O)c1c(NS(C)(=O)=O)c(-c2ccccc2)nc2ccccc12)c1ccccc1 : 3.2

---

assay: Pharmacokinetics and metabolism in dogs; type: in vivo; details: dog, plasma, oral; read-out: Bioavailability (F)
endpoint_label: bioavailability

bioavailability reading for CC[C@H](NC(=O)c1c(NS(C)(=O)=O)c(-c2ccccc2)nc2ccccc12)c1ccccc1 : ~100%

---

experiment: Pharmacokinetics and metabolism in dogs; format: in vivo; conditions: plasma; dog, low doses, estimated; read-out: Clp
endpoint_label: clearance (mL/min/kg)
Record the value in mL/min/kg, omitting the unit from your answer.

clearance reading for CC[C@H](NC(=O)c1c(NS(C)(=O)=O)c(-c2ccccc2)nc2ccccc12)c1ccccc1 : 1.2

---

test: Pharmacokinetics and metabolism in dogs; assay type: in vivo; conditions: dog, plasma; read-out: elimination half-life (T½) (converted)
endpoint_label: half-life (h)
Record the value in h, omitting the unit from your answer.

half-life reading for CC[C@H](NC(=O)c1c(NS(C)(=O)=O)c(-c2ccccc2)nc2ccccc12)c1ccccc1 : 9.5
